target: Prostaglandin E2 receptor EP4 subtype (Mus musculus); assay: Effective concentration which increases intracellular c-AMP production in mouse Prostanoid EP4 receptor
Sequence (P32240 whole entry): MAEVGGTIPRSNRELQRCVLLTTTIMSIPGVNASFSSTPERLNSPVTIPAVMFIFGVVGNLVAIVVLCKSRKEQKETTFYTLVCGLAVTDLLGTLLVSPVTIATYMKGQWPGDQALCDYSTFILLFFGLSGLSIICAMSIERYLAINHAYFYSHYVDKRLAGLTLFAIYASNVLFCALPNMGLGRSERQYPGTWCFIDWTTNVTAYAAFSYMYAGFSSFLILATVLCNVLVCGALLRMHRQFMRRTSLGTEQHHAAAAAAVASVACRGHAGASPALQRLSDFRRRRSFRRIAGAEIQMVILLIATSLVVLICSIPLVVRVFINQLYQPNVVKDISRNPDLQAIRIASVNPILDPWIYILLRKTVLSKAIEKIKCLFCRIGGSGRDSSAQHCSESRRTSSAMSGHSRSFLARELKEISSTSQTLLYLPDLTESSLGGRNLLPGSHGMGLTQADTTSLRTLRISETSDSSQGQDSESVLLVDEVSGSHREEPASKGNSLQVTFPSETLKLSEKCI
pEC50: −log10 of the molar value.
measurement name: pEC50

{"compound string": "CCCCC[C@H](O)/C=C/[C@H]1[C@H](O)CC(=O)[C@@H]1SCCCCCC(=O)O", "obs value": 8.43}
{"compound string": "CSCc1cccc(C[C@H](O)/C=C/[C@H]2[C@H](O)CC(=O)[C@@H]2SCCCSCC(=O)O)c1", "obs value": 8.32}
{"compound string": "CCOCc1cccc(C[C@H](O)/C=C/[C@H]2[C@H](O)CC(=O)[C@@H]2SCCCSCC(=O)O)c1", "obs value": 8.60}

1: CCCCC[C@H](O)/C=C/[C@H]1[C@H](O)CC(=O)[C@@H]1CCCCCCC(=O)O
2: CCCCC[C@H](O)/C=C/[C@H]1[C@H](O)CC(=O)[C@@H]1SCCCSCC(=O)O
3: COc1ccc(C[C@H](O)/C=C/[C@H]2[C@H](O)CC(=O)[C@@H]2SCCCSCC(=O)O)cc1
Ask: Put these in order: smallest pEC50 first, largest last. Please list each label once, in the requested order.
Reply: 3, 2, 1

1: CCCCC[C@H](O)/C=C/[C@H]1[C@H](O)CC(=O)[C@@H]1SCCSCCC(=O)O
2: COc1ccccc1C[C@H](O)/C=C/[C@H]1[C@H](O)CC(=O)[C@@H]1SCCCSCC(=O)O
Ask: Higher pEC50: 1 or 2 ? Write the label of whichever entry you select.
Reply: 1
(1: 6.77, 2: 6.24)

---

molecular target: Prostaglandin E2 receptor EP2 subtype (Mus musculus); assay: Evaluated for its competitive binding affinity towards mouse Prostanoid EP2 receptor in CHO cells expressing prostanoid receptor
measurement name: Ki (nM)

{"compound": "CCCCC[C@H](O)/C=C/[C@H]1[C@H](O)CC(=O)[C@@H]1CSCCSCC(=O)O", "Ki [nM]": 1000}
{"compound": "CCCCC[C@H](O)/C=C/[C@H]1[C@H](O)CC(=O)[C@@H]1SCCCCCC(=O)O", "Ki [nM]": 100}

1: CCCCC[C@H](O)/C=C/[C@H]1[C@H](O)CC(=O)[C@@H]1SCCSCCC(=O)O
2: COCCc1cccc(C[C@H](O)/C=C/[C@H]2[C@H](O)CC(=O)[C@@H]2SCCCSCC(=O)O)c1
Ask: Response body: label of entry with the larger Ki; valid values 1 , 2 . State the label of the item chosen.
Reply: 2
(2: 3100 nM, 1: 1200 nM)

A: CCCCC[C@H](O)/C=C/[C@H]1[C@H](O)CC(=O)[C@@H]1CCCCCCC(=O)O [ALPROSTADIL]
B: COc1ccc(C[C@H](O)/C=C/[C@H]2[C@H](O)CC(=O)[C@@H]2SCCCSCC(=O)O)cc1
C: Cc1cccc(C[C@H](O)/C=C/[C@H]2[C@H](O)CC(=O)[C@@H]2SCCCSCC(=O)O)c1
D: Cc1ccccc1C[C@H](O)/C=C/[C@H]1[C@H](O)CC(=O)[C@@H]1SCCCSCC(=O)O
E: CCCCC[C@H](O)/C=C/[C@H]1[C@H](O)CC(=O)[C@@H]1SCCCOCC(=O)O
Ask: Sort low-to-high on Ki, please. # answer = labels listed in requested order
Reply: A, E, C, B, D

---

Target: Prostaglandin E2 receptor EP1 subtype (Mus musculus)
Sequence (P35375 whole entry): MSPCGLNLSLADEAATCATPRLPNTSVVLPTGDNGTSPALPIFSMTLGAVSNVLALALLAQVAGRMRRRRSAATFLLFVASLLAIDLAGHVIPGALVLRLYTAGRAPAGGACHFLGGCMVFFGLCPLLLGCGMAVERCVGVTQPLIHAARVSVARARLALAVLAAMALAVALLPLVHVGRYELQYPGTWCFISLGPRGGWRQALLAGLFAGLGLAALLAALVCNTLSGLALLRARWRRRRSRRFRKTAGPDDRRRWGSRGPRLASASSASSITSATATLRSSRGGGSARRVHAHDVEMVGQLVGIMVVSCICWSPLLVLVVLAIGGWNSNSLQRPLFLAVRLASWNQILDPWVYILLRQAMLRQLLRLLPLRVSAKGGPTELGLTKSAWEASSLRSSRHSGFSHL
Experiment: Evaluated for its competitive binding affinity towards mouse Prostanoid EP1 receptor in CHO cells expressing prostanoid receptor
measurement name: Ki

{"compound string": "CCCCC[C@H](O)/C=C/[C@H]1[C@H](O)CC(=O)[C@@H]1SCCCCCC(=O)O", "assayed system": "Prostaglandin E2 receptor EP1 subtype (Mus musculus)", "Ki": "0.12 µM"}
{"compound string": "CSCc1cccc(C[C@H](O)/C=C/[C@H]2[C@H](O)CC(=O)[C@@H]2SCCCSCC(=O)O)c1", "assayed system": "Prostaglandin E2 receptor EP1 subtype (Mus musculus)", "Ki": "> 10 µM"}

Kindly consider the entry below.
Ask: What does the record list as Ki for "COc1cccc(C[C@H](O)/C=C/[C@H]2[C@H](O)CC(=O)[C@@H]2SCCCSCC(=O)O)c1" ?
Reply: > 10 µM

---

biological target: Prostaglandin E2 receptor EP2 subtype (Mus musculus, UniProt Q62053); assay: Evaluated for its competitive binding affinity towards mouse Prostanoid EP2 receptor in CHO cells expressing prostanoid receptor
Sequence (Q62053 whole entry): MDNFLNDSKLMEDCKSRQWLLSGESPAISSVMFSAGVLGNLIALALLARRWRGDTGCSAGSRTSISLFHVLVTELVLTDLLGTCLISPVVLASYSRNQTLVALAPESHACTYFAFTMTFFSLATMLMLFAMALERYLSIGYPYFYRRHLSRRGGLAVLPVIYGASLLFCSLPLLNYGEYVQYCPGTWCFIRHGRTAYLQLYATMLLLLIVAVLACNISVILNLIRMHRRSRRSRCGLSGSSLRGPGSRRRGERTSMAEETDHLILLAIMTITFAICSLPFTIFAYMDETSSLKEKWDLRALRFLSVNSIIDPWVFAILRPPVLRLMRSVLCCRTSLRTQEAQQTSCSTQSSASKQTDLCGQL
measurement name: Ki (nM)

{"compound string": "CCCOCc1cccc(C[C@H](O)/C=C/[C@H]2[C@H](O)CC(=O)[C@@H]2SCCCSCC(=O)O)c1", "readout units": "nM", "Ki": 7700}
{"compound string": "O=C(O)CSCCCS[C@H]1C(=O)C[C@@H](O)[C@@H]1/C=C/[C@@H](O)Cc1ccccc1", "readout units": "nM", "Ki": 3900}
{"compound string": "COCc1cccc(C[C@H](O)/C=C/[C@H]2[C@H](O)CC(=O)[C@@H]2SCCCSCC(=O)O)c1", "readout units": "nM", "Ki": 2100}

A: CCCCC[C@H](O)/C=C/[C@H]1[C@H](O)CC(=O)[C@@H]1SCCCSCC(=O)O
B: COc1ccccc1C[C@H](O)/C=C/[C@H]1[C@H](O)CC(=O)[C@@H]1SCCCSCC(=O)O
C: CCCC[C@H](C)C[C@H](O)/C=C/[C@H]1[C@H](O)CC(=O)[C@@H]1SCCCCCC(=O)O
D: CSCc1cccc(C[C@H](O)/C=C/[C@H]2[C@H](O)CC(=O)[C@@H]2SCCCSCC(=O)O)c1
Ask: Reorder the items by Ki, least to greatest. Answer with the labels in sequence, matching the requested order.
Reply: C, A, B, D
(C: 14 nM, A: 280 nM, B: 2600 nM, D: 5300 nM)

---

Target: Prostaglandin E2 receptor EP3 subtype (Mus musculus, UniProt P30557)
Sequence (P30557 whole entry): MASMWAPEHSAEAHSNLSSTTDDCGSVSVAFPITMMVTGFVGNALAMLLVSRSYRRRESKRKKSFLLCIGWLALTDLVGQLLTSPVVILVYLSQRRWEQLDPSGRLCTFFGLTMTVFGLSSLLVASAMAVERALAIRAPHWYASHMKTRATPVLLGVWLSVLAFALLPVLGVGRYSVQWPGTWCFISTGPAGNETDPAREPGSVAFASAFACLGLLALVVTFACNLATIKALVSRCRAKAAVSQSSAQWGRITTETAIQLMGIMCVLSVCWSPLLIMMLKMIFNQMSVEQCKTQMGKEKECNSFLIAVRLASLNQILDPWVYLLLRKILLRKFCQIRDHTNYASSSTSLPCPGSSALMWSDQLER
Assay: Evaluated for its competitive binding affinity towards mouse Prostanoid EP3 receptor in CHO cells expressing prostanoid receptor
pKi: −log10 of the molar value.
measurement name: pKi

{"compound string": "CCOCc1cccc(C[C@H](O)/C=C/[C@H]2[C@H](O)CC(=O)[C@@H]2SCCCSCC(=O)O)c1", "pKi": 5.35}

A: CSCc1cccc(C[C@H](O)/C=C/[C@H]2[C@H](O)CC(=O)[C@@H]2SCCCSCC(=O)O)c1
B: COc1ccc(C[C@H](O)/C=C/[C@H]2[C@H](O)CC(=O)[C@@H]2SCCCSCC(=O)O)cc1
C: CCCOCc1cccc(C[C@H](O)/C=C/[C@H]2[C@H](O)CC(=O)[C@@H]2SCCCSCC(=O)O)c1
D: CCCC[C@H](C)C[C@H](O)/C=C/[C@H]1[C@H](O)CC(=O)[C@@H]1SCCCCCC(=O)O
Ask: Ordering criterion: pKi; begin with the maximum. List the labels in the requested order.
Reply: D, B, A, C
(D: 8.21, B: 6.66, A: 6.37, C: 5.52)

---

biological target: Prostaglandin E2 receptor EP4 subtype (Mus musculus); assay: Evaluated for its competitive binding affinity towards mouse Prostanoid EP4 receptor in CHO cells expressing prostanoid receptor; format: cell-based
pKi: −log10 of the molar value.
measurement name: pKi

{"compound string": "COCc1cccc(C[C@H](O)/C=C/[C@H]2[C@H](O)CC(=O)[C@@H]2SCCCSCC(=O)O)c1", "obs value": 8.51}
{"compound string": "Cc1ccccc1C[C@H](O)/C=C/[C@H]1[C@H](O)CC(=O)[C@@H]1SCCCSCC(=O)O", "obs value": 7.66}
{"compound string": "CCCCC[C@H](O)/C=C/[C@H]1[C@H](O)CC(=O)[C@@H]1CSCCSCC(=O)O", "obs value": 7.55}

P: COc1ccccc1C[C@H](O)/C=C/[C@H]1[C@H](O)CC(=O)[C@@H]1SCCCSCC(=O)O
Q: CCCCC[C@H](O)/C=C/[C@H]1[C@H](O)CC(=O)[C@@H]1SCCCOCC(=O)O
R: O=C(O)CSCCCS[C@H]1C(=O)C[C@@H](O)[C@@H]1/C=C/[C@@H](O)Cc1ccccc1
Ask: Your job: order these 3 records by pKi, ascending. Rank them, then answer with their labels in that order.
Reply: P, R, Q
(P: 7.49, R: 8.15, Q: 8.64)
